# SYSTEM: recombinant DYRK1A kinase (Homo sapiens, UniProt Q13627)
# ASSAY_DETAILS: DYRK1A kinase assay (Ser/Thr 18 peptide Z-lyte FRET)
# DETAILS: DYRK1A kinase activity; 15 μM ATP, 4 μM Ser/Thr peptide 18, one hour at room temperature
ENDPOINT: EC50 (nM)

Example results:
- COMPOUND: "O=C(NC1CCN(CC2CC2)CC1)c1cnn2ccc(-c3c[nH]c4ncccc34)cc12 [Compound 48]"
  SYSTEM: "recombinant DYRK1A kinase (Homo sapiens, UniProt Q13627)"
  EC50 [nM]: 1
- COMPOUND: "CN1CCN(Cc2cnc3[nH]cc(-c4ccc5nccnc5c4)c3c2)CC1 [Compound 439]"
  SYSTEM: "recombinant DYRK1A kinase (Homo sapiens, UniProt Q13627)"
  EC50 [nM]: 16
- COMPOUND: "O=C(c1cnn2ccc(-c3c[nH]c4ncccc34)cc12)N1CCOCC1 [Compound 60]"
  SYSTEM: "recombinant DYRK1A kinase (Homo sapiens, UniProt Q13627)"
  EC50 [nM]: 6
- COMPOUND: "c1cnc2[nH]cc(-c3ccc4ncnc(N5CCNC6(CCC6)C5)c4c3)c2c1 [Compound 97]"
  SYSTEM: "recombinant DYRK1A kinase (Homo sapiens, UniProt Q13627)"
  EC50 [nM]: 2
- COMPOUND: "CN1CCC(NC(=O)c2cnn3ccc(-c4c[nH]c5nc(CC6CCC6)ccc45)cc23)CC1 [Compound 1640]"
  SYSTEM: "recombinant DYRK1A kinase (Homo sapiens, UniProt Q13627)"
  EC50 [nM]: 6
- COMPOUND: "c1cnc2[nH]cc(-c3ccc4c(c3)CCCO4)c2c1 [Compound 79]"
  SYSTEM: "recombinant DYRK1A kinase (Homo sapiens, UniProt Q13627)"
  EC50 [nM]: 24
- COMPOUND: "COc1ccc2c(-c3ccc4ncnn4c3)c[nH]c2n1 [Compound 1673]"
  SYSTEM: "recombinant DYRK1A kinase (Homo sapiens, UniProt Q13627)"
  EC50 [nM]: 65
- COMPOUND: "CN1CCC(NC(=O)c2cnn3ccc(-c4c[nH]c5nc(-c6cnn(C)c6)ccc45)cc23)CC1 [Compound 1976]"
  SYSTEM: "recombinant DYRK1A kinase (Homo sapiens, UniProt Q13627)"
  EC50 [nM]: 10

(P) CN1CCN(c2ncnc3ccc(-c4c[nH]c5nc(C6CC6)ccc45)cc23)CC1 [Compound 1534]
(Q) c1cnc2ccc(-c3c[nH]c4nc(OCC5CC5)ccc34)cc2c1 [Compound 2053]
(R) O=C(c1cnn2ccc(-c3c[nH]c4ncccc34)cc12)N1CCNC2(CC2)C1 [Compound 57]
(S) Cc1nc2c(F)cc(-c3c[nH]c4ncc(-c5ccnc(N6CCN(C)CC6)c5)cc34)cc2n1C(C)C [Compound 1375]
Put the items in sequence by EC50, from largest down. The reply should contain the labels ordered as requested. Q, P, R, S

(1) Cc1cnc2ccc(-c3c[nH]c4ncccc34)nn12 [Compound 34]
(2) CN1CCN(c2ccc(CNc3ccnc4[nH]cc(-c5ccc6ncccc6c5)c34)cn2)CC1 [Compound 2051]
(3) CN1CCC(Oc2ncnc3ccc(-c4c[nH]c5nc(C6CCC6)ccc45)cc23)CC1 [Compound 1577]
(4) COc1ccnc2[nH]cc(-c3ccn4ncc(C(=O)NC5CCN(C)CC5)c4c3)c12 [Compound 128]
(5) c1cnc2ccc(-c3c[nH]c4nc(C5CC5)ccc34)cc2c1 [Compound 1530]
Put the items in sequence by EC50, from largest down. The reply should contain the labels ordered as requested. 3, 2, 5, 1, 4
(3: 214 nM, 2: 37 nM, 5: 24 nM, 1: 2 nM, 4: 1 nM)

(I) CN1CCC(NC(=O)c2cnn3ccc(-c4c[nH]c5nc(-c6ccccc6)ccc45)cc23)CC1 [Compound 2018]
(II) c1cn2cc(-c3c[nH]c4nc(C5CCC5)ccc34)ncc2n1 [Compound 2042]
(III) CN1CCN(C(=O)c2cnn3ccc(-c4c[nH]c5ncc(C(F)(F)F)cc45)cc23)CC1 [Compound 2050]
(IV) c1cnc2[nH]cc(-c3ccc4nccnc4c3)c2c1 [Compound 90]
(V) O=C(NCC1(F)CNC1)c1cnn2ccc(-c3c[nH]c4ncccc34)cc12 [Compound 41]
Order by EC50, ascending. The reply should contain the labels ordered as requested. V, IV, I, III, II
(V: 2 nM, IV: 3 nM, I: 7 nM, III: 159 nM, II: 345 nM)

(P) CN1CCN(c2cc(-c3cnc4[nH]cc(-c5cc6ccncc6s5)c4c3)ccn2)CC1 [Compound 1370]
(Q) Cc1nc2c(F)cc(-c3c[nH]c4nc(-c5cnn(C)c5)ccc34)cc2n1C(C)C [Compound 1963]
(R) O=C(Nc1ccc2c(-c3ccc4ncccc4c3)c[nH]c2n1)c1ccncc1 [Compound 1908]
Put the items in sequence by EC50, from largest down. The reply should contain the labels ordered as requested. Q, P, R

(A) c1cnc2sc(-c3c[nH]c4ncccc34)nc2c1 [Compound 4]
(B) c1nc2ccc(-c3c[nH]c4nc(C5CCC5)ccc34)cn2n1 [Compound 1547]
Which has the higher EC50, A or B ? Lab note: record the label of whichever item you select. B
(B: 121 nM, A: 7 nM)
